All values here come from patent US9040516B2.

# experimentalSystem: human neutrophil elastase (Homo sapiens)
# Construct: purchased Elastin Products Company
# Sequence (P08246 30-267): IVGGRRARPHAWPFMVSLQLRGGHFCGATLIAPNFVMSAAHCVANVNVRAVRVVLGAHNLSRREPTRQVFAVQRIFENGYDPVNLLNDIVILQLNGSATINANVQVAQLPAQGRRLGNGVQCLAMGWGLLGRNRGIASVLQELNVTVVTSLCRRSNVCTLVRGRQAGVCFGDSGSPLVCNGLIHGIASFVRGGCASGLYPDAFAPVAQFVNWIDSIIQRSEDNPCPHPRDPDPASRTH
# testMethodNotes: Inhibitory action 2 against human neutrophil elastase (Test Example 2; fluorogenic substrate MeOSuc-AAPV-AMC, buffer with 400 mM NaCl, 0.2 mg/ml BSA)
# Type: biochemical
# testContext: 37° C., read-out: IC50 value (compound concentration required for 50% inhibition of human neutrophil elastase)
pIC50: −log10 of the molar value.

compound: Cc1c(-c2ccnn2-c2ccc(C#N)cc2)c(=O)n(C(C)CN2CCC(S(C)(=O)=O)CC2)c(=O)n1-c1cccc(C(F)(F)F)c1 (stereo not drawn)
experimentalSystem: human neutrophil elastase (Homo sapiens)
pIC50: 8.05
//
compound: Cc1c(-c2c(S(N)(=O)=O)cnn2-c2ccc(C#N)cc2)c(=O)n(C(C)C)c(=O)n1-c1cccc(C(F)(F)F)c1
experimentalSystem: human neutrophil elastase (Homo sapiens)
pIC50: 8.03
//
compound: CCCn1c(=O)c(-c2ccnn2-c2ccc(C#N)cc2)c(C)n(-c2cccc(C(F)(F)F)c2)c1=O
experimentalSystem: human neutrophil elastase (Homo sapiens)
pIC50: 7.73
